Target: hKIF18A (1-374) (Homo sapiens (Human))
Experiment: Inhibition of KIF18A microtubule-dependent ATPase activity (ADP-Glo)
Details: KIF18A microtubule-dependent ATPase activity, biochemical assay
endpoint: pIC50
By convention, pIC50 is the negative base-10 log of a molar concentration.

The reported value for CC(C)C(C)NS(=O)(=O)c1cccc(C(=O)N2CC3(CCC4(CC4)CC3)c3cc(NS(C)(=O)=O)ccc32)c1 (stereo not shown) in terms of pIC50 is 7.80

Per the records, this compound ( COc1ccc(C(=O)N2CC3(CCC4(CC4)CC3)c3cc(NS(C)(=O)=O)ccc32)cc1S(=O)(=O)NC12CC(C1)C2 ) has pIC50 equal to 8.28

Lookup result for CS(=O)(=O)Nc1ccc2c(c1)C1(CCCCC1)CN2C(=O)c1cccc(S(=O)(=O)C2CCCCC2)c1 ; measured pIC50: 7.52

Record CS(=O)(=O)Nc1ccc2c(c1)C1(CCC3(CC3)CC1)CN2C(=O)c1cccc(S(=O)(=O)NC2CCC2)c1 , field pIC50: 8.26

response.value for CS(=O)(=O)Nc1ccc2c(c1)C1(CCC3(CC3)CC1)CN2C(=O)c1ccnc([C@H](O)C2CCCC2)c1 (single isomer, unassigned) [Compound 316b] (field: pIC50) = 7.80

Sample CC(C)(C)NS(=O)(=O)c1ccc(F)c(C(=O)N2CC3(CCCCC3)c3cc(NS(C)(=O)=O)ccc32)c1 ; pIC50 observed: 6.07

Sure, the documented pIC50 for CCS(=O)(=O)Nc1ccc2c(c1)C1(CCC(F)(F)CC1)CN2C(=O)c1cccc(S(=O)(=O)NC(C)(C)C)c1 is 7.36

* * *

Biological target: KIF18a-Microtubule Complex (Homo sapiens (Human))
Assay: Binding kinetics to KIF18a-microtubule complex (global progress curve analysis)
Conditions: global progress curve analysis
Consider the following compounds; for each one, report its koff (off-rate from binding kinetics assay).
Only the number, expressed in s⁻¹, is required.

Sample CC(C)(C)NS(=O)(=O)c1cccc(C(=O)N2C[C@]3(CC[C@@H](C)CC3)c3cc(NS(C)(=O)=O)ccc32)c1 [Compound 140b] ; koff (off-rate from binding kinetics assay) observed: 2.22e-05

Just so you know, measured koff (off-rate from binding kinetics assay) for CC(C)(C)NS(=O)(=O)c1cccc(C(=O)N2C[C@]3(CC[C@H](C)CC3)c3cc(NS(C)(=O)=O)ccc32)c1 [Compound 140a] came out at 6.67e-06

Per the record, CS(=O)(=O)Nc1ccc2c(c1)C1(CCC3(CC3)CC1)CN2C(=O)c1cccc([C@H](O)C2CC(F)(F)C2)c1 (single isomer, unassigned) [Compound 351a] has koff (off-rate from binding kinetics assay) of 0.000114

Memo: CS(=O)(=O)Nc1ccc2c(c1)C1(CCC3(CC3)CC1)CN2C(=O)c1cccc([C@@H](O)CC2CCC2)c1 (single isomer, unassigned) [Compound 305a] , reported koff (off-rate from binding kinetics assay): 0.000361

Entry CS(=O)(=O)Nc1ccc2c(c1)C1(CCC3(CC3)CC1)CN2C(=O)c1cccc(C(O)C2CCCC2)c1 (single isomer, unassigned) [Compound 165b] ; koff (off-rate from binding kinetics assay) = 4.72e-05

Just so you know, measured koff (off-rate from binding kinetics assay) for CS(=O)(=O)Nc1ccc2c(c1)C1(CCC3(CC3)CC1)CN2C(=O)c1cccc(C(O)C2CCCC2)c1 (single isomer, unassigned) [Compound 165a] came out at 5e-05

Lookup result for CCS(=O)(=O)Nc1ccc2c(c1)[C@]1(CC[C@H](C(F)F)CC1)CN2C(=O)c1cccc(S(=O)(=O)NC(C)(C)C)c1 [Compound 333b] ; measured koff (off-rate from binding kinetics assay): 3.06e-06

The compound identified as CS(=O)(=O)Nc1ccc2c(c1)C1(CCC3(CC3)CC1)CN2C(=O)c1cccc([C@H](O)CC2CCC2)c1 (single isomer, unassigned) [Compound 305b] registered its koff (off-rate from binding kinetics assay) at 0.000389

Lab note: CC(C)(C)NS(=O)(=O)c1cccc(C(=O)N2C[C@]3(CC[C@H](C(F)F)CC3)c3cc(NS(C)(=O)=O)ccc32)c1 [Compound 162a] gave koff (off-rate from binding kinetics assay) of 1.53e-05

Form: compound = CCS(=O)(=O)Nc1ccc2c(c1)[C@]1(CC[C@@H](C(F)F)CC1)CN2C(=O)c1cccc(S(=O)(=O)NC(C)(C)C)c1 [Compound 333a] ; koff (off-rate from binding kinetics assay) = 3.61e-06

Value of measured koff (off-rate from binding kinetics assay) for the entry CS(=O)(=O)Nc1ccc2c(c1)C1(CCC3(CC3)CC1)CN2C(=O)c1cccc([C@@H](O)C2CCCC2)n1 (single isomer, unassigned) [Compound 317a] : 9.17e-05

Notebook: CS(=O)(=O)Nc1ccc2c(c1)C1(CCC3(CC3)CC1)CN2C(=O)c1cccc([C@H](O)C2CCCC2)n1 (single isomer, unassigned) [Compound 317b] , koff (off-rate from binding kinetics assay) read as 9.72e-05

* * *

Molecular target: hKIF18A (1-374) (Homo sapiens (Human), UniProt Q8NI77)
Sequence (Q8NI77 whole entry, looked up): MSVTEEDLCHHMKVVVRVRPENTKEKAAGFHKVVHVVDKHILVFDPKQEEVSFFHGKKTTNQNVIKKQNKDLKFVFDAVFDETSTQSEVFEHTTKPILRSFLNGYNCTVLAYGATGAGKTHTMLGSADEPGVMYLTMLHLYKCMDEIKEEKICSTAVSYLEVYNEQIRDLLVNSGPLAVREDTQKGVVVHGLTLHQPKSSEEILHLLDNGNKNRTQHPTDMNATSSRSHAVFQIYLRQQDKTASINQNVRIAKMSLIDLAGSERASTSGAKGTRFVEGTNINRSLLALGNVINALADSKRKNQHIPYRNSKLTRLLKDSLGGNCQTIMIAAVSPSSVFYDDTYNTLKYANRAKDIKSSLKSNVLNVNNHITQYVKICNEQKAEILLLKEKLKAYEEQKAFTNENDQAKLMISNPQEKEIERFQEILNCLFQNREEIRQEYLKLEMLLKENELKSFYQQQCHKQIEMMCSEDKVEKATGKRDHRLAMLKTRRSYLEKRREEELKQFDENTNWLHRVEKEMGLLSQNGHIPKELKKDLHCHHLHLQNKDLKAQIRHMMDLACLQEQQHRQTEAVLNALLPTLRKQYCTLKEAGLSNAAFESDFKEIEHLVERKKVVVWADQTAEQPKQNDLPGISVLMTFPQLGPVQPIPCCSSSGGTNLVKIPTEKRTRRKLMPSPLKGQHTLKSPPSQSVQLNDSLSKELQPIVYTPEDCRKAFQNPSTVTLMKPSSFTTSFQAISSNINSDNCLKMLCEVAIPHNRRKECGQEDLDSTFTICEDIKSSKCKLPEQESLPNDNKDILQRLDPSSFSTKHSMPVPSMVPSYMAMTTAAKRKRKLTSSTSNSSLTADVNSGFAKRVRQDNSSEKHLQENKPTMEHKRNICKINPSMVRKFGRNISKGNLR
Sequence (Q2XVP4 whole entry partner, looked up): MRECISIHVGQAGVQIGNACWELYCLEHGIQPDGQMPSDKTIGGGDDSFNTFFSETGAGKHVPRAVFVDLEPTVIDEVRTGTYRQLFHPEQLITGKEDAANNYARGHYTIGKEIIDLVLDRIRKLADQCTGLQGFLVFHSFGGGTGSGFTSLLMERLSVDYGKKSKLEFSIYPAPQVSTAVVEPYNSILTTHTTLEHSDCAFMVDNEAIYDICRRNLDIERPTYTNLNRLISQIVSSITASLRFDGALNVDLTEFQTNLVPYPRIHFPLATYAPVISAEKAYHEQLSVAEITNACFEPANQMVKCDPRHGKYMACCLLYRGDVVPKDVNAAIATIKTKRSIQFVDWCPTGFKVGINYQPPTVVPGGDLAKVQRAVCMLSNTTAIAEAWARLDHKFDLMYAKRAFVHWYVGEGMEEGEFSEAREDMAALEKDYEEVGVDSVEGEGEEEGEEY
Sequence (P02554 whole entry partner, looked up): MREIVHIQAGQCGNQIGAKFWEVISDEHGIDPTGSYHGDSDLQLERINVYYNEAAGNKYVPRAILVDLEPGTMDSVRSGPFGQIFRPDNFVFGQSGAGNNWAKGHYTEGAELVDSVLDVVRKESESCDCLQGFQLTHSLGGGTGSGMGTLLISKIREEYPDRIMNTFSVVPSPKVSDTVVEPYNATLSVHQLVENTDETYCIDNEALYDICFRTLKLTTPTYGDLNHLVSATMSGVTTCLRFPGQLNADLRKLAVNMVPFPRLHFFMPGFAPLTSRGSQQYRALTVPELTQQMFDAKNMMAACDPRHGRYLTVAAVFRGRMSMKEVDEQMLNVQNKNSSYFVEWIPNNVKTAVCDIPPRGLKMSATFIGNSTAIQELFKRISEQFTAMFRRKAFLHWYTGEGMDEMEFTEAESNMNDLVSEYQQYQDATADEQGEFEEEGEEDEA
Assay: Inhibition of KIF18A microtubule-dependent ATPase activity (ADP-Glo)
Conditions: KIF18A microtubule-dependent ATPase activity, biochemical assay
Answer each item with its documented IC50.
Note: unit nM is implicit; provide only the numeric part.

Memo: CC(C)(C)NS(=O)(=O)c1cccc(C(=O)N2CC3(CCC4(CC4)CC3)c3c2ccc(NS(C)(=O)=O)c3F)c1 , reported IC50: 6.6

Record summary for CCS(=O)(=O)Nc1ccc2c(c1)C1(CCC3(CC3)CC1)CN2C(=O)c1cccc(S(=O)(=O)NC2CC(F)(F)C2)c1 : reported IC50 = 17

get_value(item= CC(NS(=O)(=O)c1cccc(C(=O)N2CC3(CCC4(CC4)CC3)c3cc(NS(C)(=O)=O)ccc32)c1)C1CCC1 (stereo not drawn) , readout=IC50) returns 33

* * *

Biological target: KIF18a-Microtubule Complex (Homo sapiens (Human))
Assay: Binding kinetics to KIF18a-microtubule complex (global progress curve analysis)
Details: global progress curve analysis
Response key: MET means kon (on-rate from binding kinetics assay) >= 10000 M⁻¹ s⁻¹; NOT MET means kon (on-rate from binding kinetics assay) < 10000 M⁻¹ s⁻¹.

Problem: Please tell me: is the compound CC(C)(C)NS(=O)(=O)c1cc(C(=O)N2CC3(CCC4(CC4)CC3)c3cc(NS(C)(=O)=O)ccc32)ccc1F at or over 10000 M⁻¹ s⁻¹ in terms of kon (on-rate from binding kinetics assay)?
Result: NOT MET

Problem: // inclusive: kon (on-rate from binding kinetics assay) at least 10000 M⁻¹ s⁻¹? input: CC(C)(C)NS(=O)(=O)c1cc(C(=O)N2CC3(CCC4(CC4)CC3)c3cc(NS(C)(=O)=O)ccc32)cs1
Result: NOT MET

Problem: API: above_or_equal(metric=kon (on-rate from binding kinetics assay), cutoff=10000 M⁻¹ s⁻¹) for item CS(=O)(=O)Nc1ccc2c(c1)C1(CCC3(CC3)CC1)CN2C(=O)c1cccc([C@@H](O)C2CCCC2)n1 (single isomer, unassigned) [Compound 317a]
Result: NOT MET

Problem: Check this compound for kon (on-rate from binding kinetics assay) at or above 10000 M⁻¹ s⁻¹: CC(C)(C)NS(=O)(=O)c1cccc(C(=O)N2C[C@]3(CC[C@@H](C)CC3)c3cc(NS(C)(=O)=O)ccc32)c1 [Compound 140b]
Result: MET

Problem: // inclusive: kon (on-rate from binding kinetics assay) at least 10000 M⁻¹ s⁻¹? input: CS(=O)(=O)Nc1ccc2c(c1)C1(CCCCC1)CN2C(=O)c1cccc(S(=O)(=O)N2CC3(CCC3)C2)c1
Result: MET

Problem: Quick check: does CS(=O)(=O)Nc1ccc2c(c1)C1(CCC3(CC3)CC1)CN2C(=O)c1cccc(S(=O)(=O)N2CC3C(C2)C3(F)F)c1 (stereo not drawn) have kon (on-rate from binding kinetics assay) greater than or equal to 10000 M⁻¹ s⁻¹?
Result: MET

* * *

Biological target: hKIF18A (1-374) (Homo sapiens (Human), UniProt Q8NI77)
Test: Inhibition of KIF18A microtubule-dependent ATPase activity (ADP-Glo)
Settings: KIF18A microtubule-dependent ATPase activity, biochemical assay
Each record is given Satisfied if its reported IC50 is strictly below 20 nM. Records at or above 20 nM are given Not satisfied.

Problem: is_below(IC50, 20 nM) for CC(C)(C)NS(=O)(=O)c1cccc(C(=O)N2C[C@]3(CC[C@@H](C(F)F)CC3)c3cc(NS(C)(=O)=O)ccc32)c1 [Compound 162b] ?
Result: Not satisfied

Problem: Hi there! Is IC50 for CCS(=O)(=O)Nc1ccc2c(c1)C1(CCC3(CC3)CC1)CN2C(=O)c1ccc(C(O)C2CCCC2)o1 (single isomer, unassigned) [Compound 367a] below 20 nM, do you know?
Result: Satisfied

Problem: Lab note: IC50 threshold 20 nM. Does this compound come in strictly under it? O=C(c1cccc(S(=O)(=O)N2CCC(F)(F)CC2)c1)N1CC2(CCCC2)c2c(F)cccc21
Result: Not satisfied

Problem: Hello, I'm reviewing records and need to know if IC50 of CS(=O)(=O)Nc1ccc2c(c1)C1(CCC3(CC3)CC1)CN2C(=O)c1cccc(C(O)C2CCCC2)n1 (stereo not shown) is below 20 nM. Could you check?
Result: Satisfied

Problem: In plain terms, does CC(C)(C)NS(=O)(=O)c1cccc(C(=O)N2CC3(CCC4(CC4)CC3)c3cc(NS(C)(=O)=O)c(F)cc32)c1 come in under 20 nM for IC50?
Result: Satisfied

Problem: # TODO verify IC50 < 20 nM strictly for this compound: CS(=O)(=O)Nc1ccc2c(c1)C1(CCC3(CC3)CC1)CN2C(=O)c1cccc(S(=N)(=O)C2CCCC2)c1 (stereo not shown) [Compound 287]
Result: Satisfied

Problem: Input O=C(c1cccc(S(=O)(=O)NC2CCC2)c1)N1CC2(CCC3(CC3)CC2)c2cc(NS(=O)(=O)CCO)ccc21 ; condition: IC50 strictly below 20 nM. Does it hold?
Result: Satisfied

Problem: Does the reported IC50 of the following compound sit strictly below 20 nM? C[C@H](c1cccc(C(=O)N2CC3(CCC4(CC4)CC3)c3cc(NS(C)(=O)=O)ccc32)c1)N1CCC(F)(F)CC1 (single isomer, unassigned) [Compound 341b]
Result: Not satisfied

Problem: Confirm or reject: IC50 of CS(=O)(=O)Nc1ccc2c(c1)C1(CCC3(CC3)CC1)CN2C(=O)c1cccc([S+]([O-])C2CCCC2)c1 (stereo not shown) lies strictly below 20 nM
Result: Not satisfied

Problem: Determine if CCS(=O)(=O)Nc1ccc2c(c1)C1(CCC3(CC3)CC1)CN2C(=O)c1ccc([C@H](O)C(C)(C)C)o1 (single isomer, unassigned) [Compound 372a] shows IC50 strictly lower than 20 nM.
Result: Not satisfied

Problem: I wonder whether CS(=O)(=O)Nc1ccc2c(c1)[C@]1(CC[C@@H](C(F)F)CC1)CN2C(=O)c1cccc(S(=O)(=O)NC23CC(C2)C3)c1 [Compound 336a] has IC50 below 20 nM. Can you tell?
Result: Satisfied

Problem: Say whether its IC50 is strictly beneath 20 nM. Entry: CC(C)(C)NS(=O)(=O)c1cc(C(=O)N2CC3(CCC4(CC4)CC3)c3cc(NS(=O)(=O)CCO)ccc32)cs1
Result: Satisfied

Problem: Please state whether IC50 is below 20 nM for CS(=O)(=O)Nc1ccc2c(c1)C1(CCC3(CC3)CC1)CN2C(=O)c1cccc(CN2CCC(F)(F)C2)c1
Result: Not satisfied
